assay_target: STAT6 (Homo sapiens, UniProt P42226)
Construct: These cells express endogenous STAT6; host or cells: HeLa LgBiT clone 4.14
Sequence (P42226 whole entry): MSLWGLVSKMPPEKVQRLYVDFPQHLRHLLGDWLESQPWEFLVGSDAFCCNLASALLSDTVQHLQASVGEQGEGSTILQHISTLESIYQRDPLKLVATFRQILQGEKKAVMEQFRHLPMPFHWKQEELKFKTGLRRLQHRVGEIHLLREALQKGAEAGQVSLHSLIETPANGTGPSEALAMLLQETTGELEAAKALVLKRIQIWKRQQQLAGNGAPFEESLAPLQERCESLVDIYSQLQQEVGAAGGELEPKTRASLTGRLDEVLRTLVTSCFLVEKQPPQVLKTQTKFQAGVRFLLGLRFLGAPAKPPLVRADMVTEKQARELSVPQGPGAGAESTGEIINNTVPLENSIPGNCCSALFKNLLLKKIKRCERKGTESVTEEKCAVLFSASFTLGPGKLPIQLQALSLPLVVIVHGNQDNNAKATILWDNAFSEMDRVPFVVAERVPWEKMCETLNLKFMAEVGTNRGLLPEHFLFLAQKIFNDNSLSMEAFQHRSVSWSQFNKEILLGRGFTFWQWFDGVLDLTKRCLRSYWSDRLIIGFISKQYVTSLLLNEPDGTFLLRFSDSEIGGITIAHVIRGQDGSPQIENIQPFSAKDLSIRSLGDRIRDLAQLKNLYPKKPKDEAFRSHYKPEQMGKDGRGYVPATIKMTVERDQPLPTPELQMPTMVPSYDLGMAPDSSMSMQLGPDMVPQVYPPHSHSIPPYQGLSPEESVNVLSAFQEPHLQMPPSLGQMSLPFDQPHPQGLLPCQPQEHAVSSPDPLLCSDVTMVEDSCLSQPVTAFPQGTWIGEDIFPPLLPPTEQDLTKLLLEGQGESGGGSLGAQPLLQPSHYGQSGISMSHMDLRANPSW
assay_details: Stat6 Degrader Assay (HiBiT based, HeLa LgBiT clone 4.14)
Type: cell-based
details: HeLa LgBiT clone 4.14 HiBiT-STAT6, 4-24 h incubation; read-out: STAT6 degradation Emax
# maps each entry to its Emax

The cases that follow already have their Emax on record.
molecule	measured_value
CNc1ccn(-c2ccnc3c2cc(CN2CCC(c4c(F)cc(C(=O)N5CCC(CN6CCN(c7ccc8c(c7)C7(CC7)C(=O)N8[C@H]7CCC(=O)NC7=O)CC6)CC5)cc4F)CC2)n3C)c(=O)c1 (single isomer, unassigned)	30 to 40%
CNc1cc(=O)n(-c2ccnc3c2cc([C@H](C)N2CC=C(c4c(C)cc(C(=O)N5CCC(CN6CCN(c7ccc8c(c7)n(C7CCC(=O)NC7=O)c(=O)n8C)CC6)CC5)cc4F)CC2)n3C)cc1F (some centres unmarked)	< 20%
Cc1cc(C(=O)N2CCC(CN3CCC(Cc4ccc5c(c4)n(C)c(=O)n5C4CCC(=O)NC4=O)CC3)CC2)cc(F)c1C1CCN(Cc2cc3c(-n4ccc(N)cc4=O)ccnc3n2C)CC1 (centres unmarked)	50 to 60%
CNc1cc(=O)n(-c2ccnc3c2cc(CN2CCC(c4c(F)cc(C(=O)N5CCC(OCC#Cc6ccc7c(c6)n(C)c(=O)n7C6CCC(=O)NC6=O)CC5)cc4F)CC2)n3C)cc1F (centres unmarked)	30 to 40%

Turning to the following molecule.
Which Emax reading was recorded for the molecule CNc1cc(=O)n(-c2ccnc3c2cc(CN2CCC(c4c(F)cc(C(=O)N5CCC(CCn6cc(-c7ccc8c(c7)n(C)c(=O)n8C7CCC(=O)NC7=O)nn6)CC5)cc4F)CC2)n3C)cc1F (centres unmarked) ?
70 to 80%

----------
assay_target: STAT6 (Homo sapiens)
Construct: These cells express endogenous STAT6; host or cells: HeLa LgBiT clone 4.14
assay_details: Stat6 Degrader Assay (HiBiT based, HeLa LgBiT clone 4.14)
Assay type: cell-based
details: HeLa LgBiT clone 4.14 HiBiT-STAT6, 4-24 h incubation; values given for compounds with >80% Emax; geometric mean; read-out: STAT6 degradation DC50
quantity_measured: DC50 (nM)

The cases that follow already have their DC50 on record.
compound	DC50 / nM
CNc1cc(=O)n(-c2ccnc3c2cc([C@H](C)N2CC=C(c4c(C)cc(C(=O)N5CCC(CN6CCN(Cc7ccc8c(c7)n(C)c(=O)n8[C@@H]7CCC(=O)NC7=O)CC6)CC5)cc4F)CC2)n3C)cc1F (single isomer, unassigned)	0.8
CN(C(=O)c1cc(F)c(C2CCN(Cc3cc4c(-n5ccc6c(c5=O)CCN6)ccnc4n3C)CC2)c(F)c1)c1ccc(C2CCN(Cc3ccc4c(c3)n(C)c(=O)n4C3CCC(=O)NC3=O)CC2)cc1 (stereo not drawn)	0.2
CNc1cc(=O)n(-c2ccnc3c2cc([C@H](C)N2CC=C(c4c(C)cc(C(=O)N(C)c5ccc(C6CCN(Cc7ccc8c(c7)C7(CC7)C(=O)N8C7CCC(=O)NC7=O)CC6)cc5)cc4F)CC2)n3C)cc1F (stereo partly drawn)	0.1
CNc1ccn(-c2ccnc3c2cc([C@H](C)N2CCC(c4ccc(C(=O)N5CCC(CN6CCN(Cc7ccc8c(c7)C(C)(C)C(=O)N8C7CCC(=O)NC7=O)C[C@@H]6C)CC5)cc4)CC2)n3C)c(=O)c1 (stereo partly drawn)	3.1
CNc1ccn(-c2ccnc3c2cc(CN2CCC(c4c(F)cc(C(=O)N5CCC(CN6CCN(Cc7ccc8c(c7)C7(CC7)C(=O)N8C7CCC(=O)NC7=O)C[C@@H]6C)CC5)cc4F)CC2)n3C)c(=O)c1F (stereo partly drawn)	26
CNc1ccn(-c2ccnc3c2cc(CN2CC=C(c4c(C)cc(C(=O)N5CCC(CN6CCN(Cc7ccc8c(c7)n(C)c(=O)n8C7CCC(=O)NC7=O)CC6)CC5)cc4F)CC2)n3C)c(=O)c1 (stereo not drawn)	4.4
CNc1cc(=O)n(-c2ccnc3c2cc(CN2CCC(c4c(F)cc(C(=O)N5CCC(CN6CCN(Cc7ccc8c(c7)C7(CC7)C(=O)N8C7CCC(=O)NC7=O)C[C@@H]6C)CC5)cc4F)CC2)n3C)cc1F (stereo partly drawn)	1.8

a = CNc1ccn(-c2ccnc3c2cc(CN2CCC(c4c(F)cc(C(=O)N5CCC(CN6CCN(Cc7ccc8c(c7)n(C)c(=O)n8[C@@H]7CCC(=O)NC7=O)CC6)CC5)cc4F)CC2)n3C)c(=O)c1 (single isomer, unassigned)
b = CNc1ccn(-c2ccnc3c2cc(CN2CC=C(c4c(F)cc(C(=O)N5CCC(CN6CCN(Cc7ccc8c(c7)C(C)(C)C(=O)N8C7CCC(=O)NC7=O)C[C@@H]6C)CC5)cc4F)CC2)n3C)c(=O)c1 (stereo partly drawn)
Would you kindly point out which of a and b has the smaller DC50 figure? Lab log: write the label of the selected item as the result.
a
(a: 2.4 nM, b: 3.9 nM)
